Tested on: 171881-019-R-J1-PDC multicell spheroid viability
EXPERIMENT NOTES: Anticancer human tumor 171881-019-R-J1-PDC patient-derived invasive breast carcinoma cell line growth inhibition [IpAb]
CONDITION LABEL: second compound 0.1 µM; first compound 0.01 µM; stronger effect = lower value
Procedure: Combinatorial screen of targeted agents with ipatasertib and abemaciclib in multi-cell type tumor spheroids […] Compounds. […] If the clinical Cmax for an agent had not been determined, the highest concentration tested was 10 microM. NCI60 Cell Culture. […] The optimal seeding densities for each of the cell lines at each time point assessed were determined prior to performing the concentration response studies. […]
Labelling field: enter Met if recorded viability, T/C is less than 80%. Enter Not met if it equals or exceeds that cut-off.

compound="COc1c(OCCCN2CCOCC2)ccc2c3n(c(=NC(=O)c4cnc(N)nc4)nc12)CCN3 + CC(C)NCC(C(=O)N1CCN(c2ncnc3c2C(C)CC3O)CC1)c1ccc(Cl)cc1" assay_system="171881-019-R-J1-PDC multicell spheroid viability" class=Met
compound="CC(C)n1nc(-c2ccc3oc(N)nc3c2)c2c(N)ncnc21 + CC(C)NCC(C(=O)N1CCN(c2ncnc3c2C(C)CC3O)CC1)c1ccc(Cl)cc1" assay_system="171881-019-R-J1-PDC multicell spheroid viability" class=Met
compound="Cn1ncnc1[C@H]1c2n[nH]c(=O)c3cc(F)cc(c23)N[C@@H]1c1ccc(F)cc1 + CC(C)NCC(C(=O)N1CCN(c2ncnc3c2C(C)CC3O)CC1)c1ccc(Cl)cc1" assay_system="171881-019-R-J1-PDC multicell spheroid viability" class="Not met"
compound="CC(C)n1nc(-c2ccc3oc(N)nc3c2)c2c(N)ncnc21 + CCN1CCN(Cc2ccc(Nc3ncc(F)c(-c4cc(F)c5nc(C)n(C(C)C)c5c4)n3)nc2)CC1" assay_system="171881-019-R-J1-PDC multicell spheroid viability" class=Met
compound="Cn1ncnc1[C@H]1c2n[nH]c(=O)c3cc(F)cc(c23)N[C@@H]1c1ccc(F)cc1 + CCN1CCN(Cc2ccc(Nc3ncc(F)c(-c4cc(F)c5nc(C)n(C(C)C)c5c4)n3)nc2)CC1" assay_system="171881-019-R-J1-PDC multicell spheroid viability" class="Not met"

###

Test system: 171881-019-R-J1-PDC multicell spheroid viability
EXPERIMENT NOTES: Anticancer human tumor 171881-019-R-J1-PDC cell line growth inhibition [IpAb];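 note: spheroids exposed to the agents for seven days before readout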
CONDITION LABEL: curve of first compound; second compound 0.0316 µM
pIC50: −log10 of the molar value.
ASSAY METRIC: pIC50

compound="COc1c(OCCCN2CCOCC2)ccc2c3n(c(=NC(=O)c4cnc(N)nc4)nc12)CCN3 + CCN1CCN(Cc2ccc(Nc3ncc(F)c(-c4cc(F)c5nc(C)n(C(C)C)c5c4)n3)nc2)CC1" qualifier_sign== reading=7.68
compound="Cc1nc(NC(=O)N2CCCC2C(N)=O)sc1-c1ccnc(C(C)(C)C(F)(F)F)c1 (stereo not given) + CCN1CCN(Cc2ccc(Nc3ncc(F)c(-c4cc(F)c5nc(C)n(C(C)C)c5c4)n3)nc2)CC1" qualifier_sign== reading=6.13
compound="CC(C)(C)c1cnc(CSc2cnc(NC(=O)C3CCNCC3)s2)o1 + CCN1CCN(Cc2ccc(Nc3ncc(F)c(-c4cc(F)c5nc(C)n(C(C)C)c5c4)n3)nc2)CC1" qualifier_sign== reading=6.74
compound="CCCS(=O)(=O)Nc1ccc(F)c(C(=O)c2c[nH]c3ncc(-c4ccc(Cl)cc4)cc23)c1F + CCN1CCN(Cc2ccc(Nc3ncc(F)c(-c4cc(F)c5nc(C)n(C(C)C)c5c4)n3)nc2)CC1" qualifier_sign=< reading=5.00
compound="CC(C)n1nc(-c2ccc3oc(N)nc3c2)c2c(N)ncnc21 + CCN1CCN(Cc2ccc(Nc3ncc(F)c(-c4cc(F)c5nc(C)n(C(C)C)c5c4)n3)nc2)CC1" qualifier_sign== reading=8.22

###

Tested on: 171881-019-R-J1-PDC multicell spheroid viability
EXPERIMENT NOTES: Anticancer human tumor 171881-019-R-J1-PDC cell line growth inhibition [IpAb];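 note: spheroids exposed to the agents for seven days before readout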
CONDITION LABEL: second compound 1 µM; first compound 0.00949 µM; stronger effect = lower value
ASSAY METRIC: viability, T/C (%)

compound="Cn1cnc2c(F)c(Nc3ccc(Br)cc3Cl)c(C(=O)NOCCO)cc21 + CCN1CCN(Cc2ccc(Nc3ncc(F)c(-c4cc(F)c5nc(C)n(C(C)C)c5c4)n3)nc2)CC1" reading=149
compound="CC(C)(C)c1cnc(CSc2cnc(NC(=O)C3CCNCC3)s2)o1 + CC(C)NCC(C(=O)N1CCN(c2ncnc3c2C(C)CC3O)CC1)c1ccc(Cl)cc1" reading=24.9
compound="Cn1cnc2c(F)c(Nc3ccc(Br)cc3Cl)c(C(=O)NOCCO)cc21 + CC(C)NCC(C(=O)N1CCN(c2ncnc3c2C(C)CC3O)CC1)c1ccc(Cl)cc1" reading=24.5
compound="CC(C)(C)c1cnc(CSc2cnc(NC(=O)C3CCNCC3)s2)o1 + CCN1CCN(Cc2ccc(Nc3ncc(F)c(-c4cc(F)c5nc(C)n(C(C)C)c5c4)n3)nc2)CC1" reading=148
compound="CC(=O)c1c(C)c2cnc(Nc3ccc(N4CCNCC4)cn3)nc2n(C2CCCC2)c1=O + CC(C)NCC(C(=O)N1CCN(c2ncnc3c2C(C)CC3O)CC1)c1ccc(Cl)cc1" reading=27.8
compound="CC(=O)c1c(C)c2cnc(Nc3ccc(N4CCNCC4)cn3)nc2n(C2CCCC2)c1=O + CCN1CCN(Cc2ccc(Nc3ncc(F)c(-c4cc(F)c5nc(C)n(C(C)C)c5c4)n3)nc2)CC1" reading=142

###

System: 171881-019-R-J1-PDC multicell spheroid viability
EXPERIMENT NOTES: Anticancer human tumor 171881-019-R-J1-PDC cell line growth inhibition [IpAb];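 note: spheroids exposed to the agents for seven days before readout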
CONDITION LABEL: second compound 0.316 µM; first compound 0.00949 µM; stronger effect = lower value
ASSAY METRIC: viability, T/C (%)

compound="Cn1cnc2c(F)c(Nc3ccc(Br)cc3Cl)c(C(=O)NOCCO)cc21 + CCN1CCN(Cc2ccc(Nc3ncc(F)c(-c4cc(F)c5nc(C)n(C(C)C)c5c4)n3)nc2)CC1" unit_name=% reading=142
compound="Cn1cnc2c(F)c(Nc3ccc(Br)cc3Cl)c(C(=O)NOCCO)cc21 + CC(C)NCC(C(=O)N1CCN(c2ncnc3c2C(C)CC3O)CC1)c1ccc(Cl)cc1" unit_name=% reading=72.7
compound="CC(=O)c1c(C)c2cnc(Nc3ccc(N4CCNCC4)cn3)nc2n(C2CCCC2)c1=O + CCN1CCN(Cc2ccc(Nc3ncc(F)c(-c4cc(F)c5nc(C)n(C(C)C)c5c4)n3)nc2)CC1" unit_name=% reading=127
compound="CC(C)(C)c1cnc(CSc2cnc(NC(=O)C3CCNCC3)s2)o1 + CCN1CCN(Cc2ccc(Nc3ncc(F)c(-c4cc(F)c5nc(C)n(C(C)C)c5c4)n3)nc2)CC1" unit_name=% reading=132
compound="CC(C)(C)c1cnc(CSc2cnc(NC(=O)C3CCNCC3)s2)o1 + CC(C)NCC(C(=O)N1CCN(c2ncnc3c2C(C)CC3O)CC1)c1ccc(Cl)cc1" unit_name=% reading=82.3
compound="CC(=O)c1c(C)c2cnc(Nc3ccc(N4CCNCC4)cn3)nc2n(C2CCCC2)c1=O + CC(C)NCC(C(=O)N1CCN(c2ncnc3c2C(C)CC3O)CC1)c1ccc(Cl)cc1" unit_name=% reading=77.4

###

Below: a set of entries, each annotated with reported viability, T/C.
System: 171881-019-R-J1-PDC multicell spheroid viability
EXPERIMENT NOTES: Anticancer human tumor 171881-019-R-J1-PDC cell line growth inhibition [IpAb];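 note: spheroids exposed to the agents for seven days before readout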
CONDITION LABEL: second compound 0.316 µM; first compound 0.0316 µM; stronger effect = lower value
ASSAY METRIC: viability, T/C (%)

molecule="CCCS(=O)(=O)Nc1ccc(F)c(C(=O)c2c[nH]c3ncc(-c4ccc(Cl)cc4)cc23)c1F + CCN1CCN(Cc2ccc(Nc3ncc(F)c(-c4cc(F)c5nc(C)n(C(C)C)c5c4)n3)nc2)CC1" assay_metric="viability, T/C" reading=123
molecule="Cc1nc(NC(=O)N2CCCC2C(N)=O)sc1-c1ccnc(C(C)(C)C(F)(F)F)c1 (stereo unspecified) + CCN1CCN(Cc2ccc(Nc3ncc(F)c(-c4cc(F)c5nc(C)n(C(C)C)c5c4)n3)nc2)CC1" assay_metric="viability, T/C" reading=130
molecule="COc1c(OCCCN2CCOCC2)ccc2c3n(c(=NC(=O)c4cnc(N)nc4)nc12)CCN3 + CCN1CCN(Cc2ccc(Nc3ncc(F)c(-c4cc(F)c5nc(C)n(C(C)C)c5c4)n3)nc2)CC1" assay_metric="viability, T/C" reading=45.3
molecule="C=CC(=O)N1CCN(c2nc(=O)n(-c3c(C)ccnc3C(C)C)c3nc(-c4c(O)cccc4F)c(F)cc23)C(C)C1 (stereo unspecified) + CC(C)NCC(C(=O)N1CCN(c2ncnc3c2C(C)CC3O)CC1)c1ccc(Cl)cc1" assay_metric="viability, T/C" reading=74.1
molecule="Cn1ncnc1[C@H]1c2n[nH]c(=O)c3cc(F)cc(c23)N[C@@H]1c1ccc(F)cc1 + CC(C)NCC(C(=O)N1CCN(c2ncnc3c2C(C)CC3O)CC1)c1ccc(Cl)cc1" assay_metric="viability, T/C" reading=65.8
molecule="Cn1nccc1Nc1nccc(-c2ccn(C(CO)c3ccc(Cl)c(F)c3)c(=O)c2)n1 (stereo unspecified) + CCN1CCN(Cc2ccc(Nc3ncc(F)c(-c4cc(F)c5nc(C)n(C(C)C)c5c4)n3)nc2)CC1" assay_metric="viability, T/C" reading=144
molecule="Cc1nc(NC(=O)N2CCCC2C(N)=O)sc1-c1ccnc(C(C)(C)C(F)(F)F)c1 (stereo unspecified) + CC(C)NCC(C(=O)N1CCN(c2ncnc3c2C(C)CC3O)CC1)c1ccc(Cl)cc1" assay_metric="viability, T/C" reading=71.5
molecule="CC(C)n1nc(-c2ccc3oc(N)nc3c2)c2c(N)ncnc21 + CC(C)NCC(C(=O)N1CCN(c2ncnc3c2C(C)CC3O)CC1)c1ccc(Cl)cc1" assay_metric="viability, T/C" reading=1.96
molecule="C=CCn1c(=O)c2cnc(Nc3ccc(N4CCN(C)CC4)cc3)nc2n1-c1cccc(C(C)(C)O)n1 + CCN1CCN(Cc2ccc(Nc3ncc(F)c(-c4cc(F)c5nc(C)n(C(C)C)c5c4)n3)nc2)CC1" assay_metric="viability, T/C" reading=131
molecule="CCCS(=O)(=O)Nc1ccc(F)c(C(=O)c2c[nH]c3ncc(-c4ccc(Cl)cc4)cc23)c1F + CC(C)NCC(C(=O)N1CCN(c2ncnc3c2C(C)CC3O)CC1)c1ccc(Cl)cc1" assay_metric="viability, T/C" reading=90.3
molecule="Cn1ncnc1[C@H]1c2n[nH]c(=O)c3cc(F)cc(c23)N[C@@H]1c1ccc(F)cc1 + CCN1CCN(Cc2ccc(Nc3ncc(F)c(-c4cc(F)c5nc(C)n(C(C)C)c5c4)n3)nc2)CC1" assay_metric="viability, T/C" reading=130
